These measurements were taken from patent US20150087812A1.

# target: recombinant human ATX beta isoform with N-terminal purification tag (human, UniProt Q13822 49-863)
# test-details: Fab-His ELISA
Exercise: for every item that follows, state its recorded fold above background.

binder	recorded-endpoint	observed-result
Fab F78 (VH H73, VL L73) (Fab, V domains shown, Soluble Fab-His) VH: QVQLVQSGAEVKKPGSSVKVSCKASGGTFSSYAISWVRQAPGQGLEWMGGIIPIFGTANYAQKFQGRVTITADESTSTAYMELSSLRSEDTAVYYCARGTFTYDFLDYWGQGTLVTVSS VL: EIVLTQSPGTLSLSPGERATLSCRASQSVSSSYLAWYQQKPGQAPRLLIYGASSRATGIPDRFSGSGSGTDFTLTISRLEPEDFAVYYCQQSSRFPWTFGQGTKVEIK	fold above background	≥ 6 fold

Shifting focus to the binder that follows.
Form field fold above background, entry Fab F93 (VH H86, VL L79) (Fab, V domains shown, Soluble Fab-His) VH: QVQLVQSGAEVKKPGSSVKVSCKASGGTFSSYAISWVRQAPGQGLEWMGGIIPIFGTANYAQKFQGRVTITADESTSTAYMELSSLRSEDTAVYYCARDTFWFTVFDYWGQGTLVTVSS VL: EIVLTQSPGTLSLSPGERATLSCRASQSVSSSYLAWYQQKPGQAPRLLIYGASSRATGIPDRFSGSGSGTDFTLTISRLEPEDFAVYYCQQSNTLPLTFGQGTKVEIK : ≥ 6 fold
